measurement.target: T1, BCMA on the surface of BCMA-positive cell lines H929 (NCI-H929) and RPMI8226 (human, UniProt Q02223 1-184)
T1 construct: whole, on cells; Endogenous BCMA of the cell lines; also called 细胞膜表面的BCMA抗原
T1 sequence (looked up): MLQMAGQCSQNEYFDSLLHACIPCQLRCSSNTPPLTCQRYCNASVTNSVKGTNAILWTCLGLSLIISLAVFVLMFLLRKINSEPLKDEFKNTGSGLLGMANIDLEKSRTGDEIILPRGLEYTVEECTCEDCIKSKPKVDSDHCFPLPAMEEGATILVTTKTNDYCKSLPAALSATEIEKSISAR
assay.details: flow cytometry, antibody titration on RPMI8226 cells
readout.label: EC50

• B10.9 (affinity-matured mutant of B10) (scFv, also called 突变体B10.9) scFv: QVQLQQSGAEVKKPGSSVKVSCKASGGTFSKSAIQWVRQAPGQGLEWMGGVIPIFGTANYAQKFQGRVTITADESTSTAYMELSSLRSEDTAVYYCARGWYLDLWGRGTLVTVSSGGSSRSSSSGGGGSGGGGLPVLTQPPSASGTPGQRVTISCSGSSNNIGGYSVNWYQQFPGTAPKLLIYRNNQRPSGVPDRFSGSKSGASASLAISGLQSEDEADYYCAAWDDSEIGWLFGTGTQLTVL = 0.0451 µg/mL
• B10 parental antibody as expressed and purified in Example 3 (antibody, V domains shown, also called 亲本B10; B10亲本抗体) VH: QVQLQQSGAEVKKPGSSVKVSCKASGGTFSSYAISWVRQAPGQGLEWMGGIIPIFGTANYAQKFQGRVTITADESTSTAYMELSSLRSEDTAVYYCARGWYFDLWGRGTLVTVSS VL: LPVLTQPPSASGTPGQRVTISCSGSSSNIGGYSVNWYQQFPGTAPKLLIYRNNQRPSGVPDRFSGSKSGASASLAISGLQSEDEADYYCAAWDDSLIGYVFGTGTQLTVL = 1.57 µg/mL
• B10.3 (affinity-matured mutant of B10) (scFv, also called 突变体B10.3) scFv: QVQLQQSGAEVKKPGSSVKVSCKASGGTFSKSAIQWVRQAPGQGLEWMGGVIPIFGTANYAQKFQGRVTITADESTSTAYMELSSLRSEDTAVYYCARGWYLDLWGRGTLVTVSSGGSSRSSSSGGGGSGGGGLPVLTQPPSASGTPGQRVTISCSGSSNNIGGYSVNWYQQFPGTAPKLLIYRNNQRPSGVPDRFSGSKSGASASLAISGLQSEDEADYYCAAWDDSVIGWLFGTGTQLTVL = 0.0282 µg/mL
• B10.4 (affinity-matured mutant of B10) (scFv, also called 突变体B10.4) scFv: QVQLQQSGAEVKKPGSSVKVSCKASGGTFSKSAIMWVRQAPGQGLEWMGGVIPIFGTANYAQKFQGRVTITADESTSTAYMELSSLRSEDTAVYYCARGWYLDLWGRGTLVTVSSGGSSRSSSSGGGGSGGGGLPVLTQPPSASGTPGQRVTISCSGSSNNIGGYSVNWYQQFPGTAPKLLIYRNNQRPSGVPDRFSGSKSGASASLAISGLQSEDEADYYCAAWDDSVIGWLFGTGTQLTVL = 0.0343 µg/mL
